The measured values listed here are drawn from the domain aggregation screens of Martell et al. (2025).

Measured soluble fraction (log2) of individual entries
# testSummary: soluble fraction after stress (log2 fold change); higher = more stays soluble; pooled small domains, quantitative proteomics
# conditionNotes: stress: 50 degC
metricName: soluble fraction (log2)

{"sequenceCode": "HMFVNADEIAKGLSPFNPSSVAIEAGRLMLKRIGELLSAGVSFSVETTLSTRSYINLIQQAQNQGYSVSL", "relationQualifier": "≥", "reading": 0.62}
{"sequenceCode": "HMEILTRQLTHYLHLLPPAQQEVVRGVYLQDQTLQEIADRVQIPLGTVKSRLRLGLSKLREQIEQEHE", "relationQualifier": "=", "reading": -0.916}
{"sequenceCode": "HMDRLTISTLGNGLFRVNGAEAEATVYNLSGNVVKVVPADEVIDLSSLAKGVYIIHVDGEAFKVI", "relationQualifier": "=", "reading": -0.86}
{"sequenceCode": "HMAVKLELYRVFKEVAETGNISAAAKNLYISQSAVSQSIKQLETALQARLFARSPRGVTLTGEGQMLYQYV", "relationQualifier": "=", "reading": -1.44}
{"sequenceCode": "HMDGAPVTVIKNGEVDVATTMRVGLSASELMFKLRAAGVDEVQIVHRAVLEQNGQLTIIKYGEE", "relationQualifier": "=", "reading": 0.0259}
{"sequenceCode": "HMGAAFITSSKDNAINIRQSANTDSKVIETVTNGQILESNEKSGEWHKVTYYDNDIKKSFTGYVHEGQLK", "relationQualifier": "=", "reading": 0.125}
{"sequenceCode": "HMDKPIVFLEDTKAHKSSDLQSPVYMTVPKGTIAFVIAEKGDWSQVYAGRVLDRNLASQWVRRGFS", "relationQualifier": "=", "reading": 0.227}

###

# testSummary: soluble fraction after stress (log2 fold change); higher = more stays soluble; pooled small domains, quantitative proteomics
# conditionNotes: stress: 50 degC
Rule: soluble fraction (log2) under -0.1 gives No, otherwise Yes.

{"sequenceCode": "HMQHQSGLKSGEFEAISQQLQALLKENPLSLQEIKDKMQVTENHLIKVVSYLVSEEIIRQENGYLK", "discreteLabel": "No"}
{"sequenceCode": "HMFKLPRTIGTFEDSDVVIGAGKFGPYIMHNKKFVSLPKSEDPLTIGLERAIELISAKREQEKQRH", "discreteLabel": "Yes"}
{"sequenceCode": "HMKREELTQQTKQNLREAFWSLYIQKPIEKITVKEITDIAGYNRGTFYLYYKDTYDLLAKIE", "discreteLabel": "No"}
{"sequenceCode": "HMSFSQNIGKRIREERLRLNLTQEKLAEDVNLSMAYIGQVERGDRSLTLDNLIIVAKRLGVTIDYLLS", "discreteLabel": "No"}
{"sequenceCode": "HMTIDANAIEKMVLDLIGEHPNEWGRYRDGDKKVQGFFVGQIMKATSGQADGKIVNQILSQHAEA", "discreteLabel": "No"}
{"sequenceCode": "HMAELTTVQAADILHVSRPFLIKLLDEGQIPYHRVGKHRRIRMEDVMNYKRAIDQQREAVLDQLVAEA", "discreteLabel": "Yes"}
{"sequenceCode": "HMKELLDRIFLHETMRRVSQDATITFSKKVYEVPQKFIGRQVTVQYDPEDLSRVYVKDLNFPEPVMVYPVQ", "discreteLabel": "No"}
{"sequenceCode": "HMARAESYGDIARLEQLLDEHANIAALDPGKLPAVRQQIWTLMRAARMDHDLGLAERPEDDSFDDMLLHV", "discreteLabel": "Yes"}
{"sequenceCode": "HMEGTEVTTEPPGAQIEFDGKQFGPTPTRVPGLAAGKQFRITLAGYQEAKPKLKNNPKEGEPLSFTLTAI", "discreteLabel": "Yes"}
{"sequenceCode": "HMDLPGIVTETDRQRADLAARIGAAKVEAVLAGGARSVEADEDFDADTRRELHQFLTRMARRAFLEER", "discreteLabel": "Yes"}
{"sequenceCode": "HMTTVRLNATVPPELALQRLDRVARELFPEYSRNRLQQWIRSGELLVNGSPSGVRDKVPLGAELAVAANLE", "discreteLabel": "No"}
{"sequenceCode": "HMEPQLVKSFDVQTELTYDQFLSKYPESHTLGRLLVQPEPIPFEPYKNIPGITPEKLLALHAKHLEAR", "discreteLabel": "Yes"}
{"sequenceCode": "HMPIHAGERLTLRLAGEGREAGQAIGYLEDGTLVIVERARHLIGQDVTVEVTRTLQTAGGRLVFAHLVE", "discreteLabel": "No"}
{"sequenceCode": "HMLKEGQYSPNHFHWHKMEDIINRGGGTLLIRVYNSLPDEEIDRESDVTVHMDGVTRTVPAGTQLRLE", "discreteLabel": "No"}
{"sequenceCode": "HMAFRIGGFVQEGSVVRQQDGGTVRFEVTDTAHSVPVTYKGSLPDLFKEGKGVVAQGKLMNGTFVADQVLA", "discreteLabel": "Yes"}
{"sequenceCode": "HMFFDKIIVDFLADGSRIDKYISTLYPDISRTHIQRLIAEQFILVNDSVVKSNYKLSTNDVVLIHIPEA", "discreteLabel": "No"}
{"sequenceCode": "HMARRSRADAVRNREALIDAAKAAFTEAGPDVSLEEIARRAGVGIGTLYRHFPTRDAVIEAVYR", "discreteLabel": "Yes"}
{"sequenceCode": "HMETIELSAPGGVRLDKLIADGTELSRSAAVKLIEQGNVLVNGSPAGKKDIPAAGAAVEITLPEPQ", "discreteLabel": "No"}
{"sequenceCode": "HMSLLTIDELSQATGVSVRTLRYYVSSGVLDKPTGETRNARYGTHHLDQVRNIKKLQEEGLTLNRILEIKK", "discreteLabel": "No"}
{"sequenceCode": "HMKNEQIFIVRPDAEGTRLDQWLAAQMASSEEAPSRMQIQRWIKAGLVEGQGTLNPARRIEAGESYTVKPG", "discreteLabel": "Yes"}
{"sequenceCode": "HMSSLTDNFVKALSYYLALSGKSKKEVADGIGIPPTTFSSWSNGKHLPDMDRLQNLATYLGAPVSEFFDFT", "discreteLabel": "Yes"}
{"sequenceCode": "HMEDNLMIVVQVNGKKRSEIKVSIDASEDQIKQTALAEPNVQKFVEGHTIRKMILVPSKLLNIVV", "discreteLabel": "Yes"}
{"sequenceCode": "HMQISDEGELSGIVRKIIDANPQSVADYKAGKKKAIGFLVGQIMIETKGRANPASVNELLIKKLE", "discreteLabel": "Yes"}
{"sequenceCode": "HMITVPKVINMSETQARQTLDALGLNVTLSATQVMNDKIPYGYVAAQSYSAGKEVPAGTTIELTMSIGL", "discreteLabel": "No"}
{"sequenceCode": "HMIMQTTSDRINQRMRDLGLQHKDLVAATGASKGTVTNWINGVNNPTGKRLVQLAQALKTTSSWLLTGN", "discreteLabel": "No"}
{"sequenceCode": "HMDPSKMKIDELEIATRTATALADGGIKSVAGLIRKSASALKELDGVGDKAIAEITEALEKLGLELKG", "discreteLabel": "Yes"}

###

# testSummary: soluble fraction after stress (log2 fold change); higher = more stays soluble; pooled small domains, quantitative proteomics
# conditionNotes: stress: 50 degC
Parameter threshold = -0.2. Response is criterion met when soluble fraction (log2) meets or exceeds it, else criterion not met.

{"sequenceCode": "HMEFLDQAFLHETMRKVNQDATINLLKKVYEVPQKFIGRKVTVQYDPEDLSRVYVKDLSFPEPVTVYPV", "discreteLabel": "criterion met"}
{"sequenceCode": "HMDAIIVPSVLKMKPFEAEEKLSALGLRMKINDTVYIDNMKPGVIVEQSPTAEEDVKTDRVIYVIVNA", "discreteLabel": "criterion not met"}
{"sequenceCode": "HMRMLLKELLIQYEVKNDKSHVEVAKEVGVSLSTYYRWLNGESLHLKKRTIDRLSEVLHYDINQVVEES", "discreteLabel": "criterion not met"}
{"sequenceCode": "HMGDADDLSRELLQQGLSLKEAVADFERRYLQQAMQRHSSIASVSEALDVHFSTLWRKLVKYNLV", "discreteLabel": "criterion met"}
{"sequenceCode": "HMLPFGHTRLEDGTIQEIPEQIALARKVAEMYKAGFPVMQISIKTEGLLTPRQIYGLMNHWGVKR", "discreteLabel": "criterion not met"}
{"sequenceCode": "HMFEEPYLATYPVLIDPKLAFNVLDTMLEGLEVKMDQDEETGAISVLAPASIHTKITEYLDALSKQ", "discreteLabel": "criterion met"}
{"sequenceCode": "HMQGEAMQETVKKLDAFLQDNSVSMSALARALGVSPSLISQFRSGSYKGDSQAIAAKINSYIDNHNKKSK", "discreteLabel": "criterion met"}

###

# testSummary: soluble fraction after stress (log2 fold change); higher = more stays soluble; pooled small domains, quantitative proteomics
# conditionNotes: stress: 50 degC

{"sequenceCode": "HMSLSKEEFETISKQVLELAGAGPIPVKELLQKMERTSKEKAWKVIEFLQAEDKIVPDATGRIQL", "soluble fraction (log2)": -0.068}
{"sequenceCode": "HMLTGADAEKATAAAQAEFPGGTVLRVETDADGTYEAHVRKADGTEVEVKMDKDFKVTSVEE", "soluble fraction (log2)": 0.0905}
{"sequenceCode": "HMRKIGDVLRLHAGGLSKRRIAVSLNIGRTAVGDYISRARRAGLGWPLPEDLSEEALERLLFPPP", "soluble fraction (log2)": -2.59}
{"sequenceCode": "HMTMRFVVADGQNFGSIAQSKALEAVKKGNTEFNYKDVDYTVDIQSDDFYVVYQGRDIMGYASR", "soluble fraction (log2)": -2}
{"sequenceCode": "HMSDKPIFIDTAGIAALSAIGFSKYQATIIFNYIKKGGAIYTVKDLAKIYSIDQKTIDLTQSKIIFS", "soluble fraction (log2)": -0.0111}
{"sequenceCode": "HMRQKTTFFATESFELPNGEKVEEGQIFRLNDGAFNIAEQQGITRFLTSEANYGRMIAANAEVEKAKLDA", "soluble fraction (log2)": 0.268}
{"sequenceCode": "HMKTGHLPVTVIIDGRIISDNLYKTGLSNNWLADQLRKNSIKSSEDVFFAYLNPERKFIYQLRSNS", "soluble fraction (log2)": -1.01}
{"sequenceCode": "HMPRSREVHVEPGMVLEDVTTGFVGAVIRTEKSAGIYVIELEDRRGRRRSFPLGGGFWLDGRPIIALPPLP", "soluble fraction (log2)": -1.19}
{"sequenceCode": "HMHETMGQIIKRLRKERGLTQESLAERLGVTFQAVSKWETDAGMPDVSQIVPLANAFGVRTDVLFGLEGRD", "soluble fraction (log2)": -0.111}
{"sequenceCode": "HMKHYIDFIAEQLKTLTAIPSPSGYTKNATDYLMKLLQDMGYEPKLSRKGNVFVTLGGDGEPLVLAAHVD", "soluble fraction (log2)": -0.114}
{"sequenceCode": "HMETAVMPDVMKLDSTTAIQALKDKGFATIETYEVKSDRPAGVVVRQSETADSVVALSKEILLGVSNGADY", "soluble fraction (log2)": 0.304}
{"sequenceCode": "HMAKSKYETHVLPNLDKIIKWAKAGATAKEIAANLHIAYSTFRKYLDEGQEGDERYAALSAAFAQA", "soluble fraction (log2)": 0.321}
{"sequenceCode": "HMKKGRIGSIIQYVREHPGVSSSEIITGLGLDISPATIRRDLTLLVAENKLSVEGQNKGTKYFVSPTYDMF", "soluble fraction (log2)": -0.323}
{"sequenceCode": "HMKKPKTVLSEEQKEFIINQAQDGVSAYDIARILFPSVNVTNLSKEVIDVAEFIRDTDIKLLADSE", "soluble fraction (log2)": 0.0694}
{"sequenceCode": "HMGLSARIAQRIHGLRTAQRMSLEALAARSGVSRSMISLIERNEASPTAVVLEKIATGLNVVLAALFDTP", "soluble fraction (log2)": -1.29}
{"sequenceCode": "HMEHPNNTELTQKLELGTELMQYGDYNYALKVFNNVIDSDPEWSEAWNKRATVYFLMSQFTDSLSDIDRV", "soluble fraction (log2)": 0.32}
{"sequenceCode": "HMEAVLTISPGMYSESVSAELVRLGIITNQKEFNSYLVNNGYAERIQTGDFKIKADMSYDEIARIITK", "soluble fraction (log2)": 0.231}
{"sequenceCode": "HMSGIQNNFITRLKKVLAPTIGIAEEISDLLNISIDSAYRRIRGETDFTFEEIYIITRKHKISIDEIYG", "soluble fraction (log2)": -3.58}
{"sequenceCode": "HMTNTDYPGKVVPVDPDGKTLKPDGDASYNDKPGTKVKTPTVPGYTAEVPNVEVPVGGGDIKVTYHKKPV", "soluble fraction (log2)": 0.372}
{"sequenceCode": "HMVADEGELLAIAREVVAANPKVFEDWKAGKQSAAQWFVGQIMKRTRGRANPQLALKLVTQALEEHAR", "soluble fraction (log2)": 0.0775}
{"sequenceCode": "HMDEYTAVDSRLDLELAMKRLKPEEAEVLRLVFDYGLPQRAIAERLGVSQMSVSRMQRRAIGKLKRWLSDN", "soluble fraction (log2)": -1.08}
{"sequenceCode": "HMNETTVPDVINQNISTGKIIIEDADLEYRIQYIPSEKSSSIGTIINSIPIYGKRVKSGTIVDLKVLG", "soluble fraction (log2)": -0.0142}
{"sequenceCode": "HMSTFKSYRGKITASSGVNIRTGAGTNYNKNGALTYNSVVTIVDEKKVSGTTWGKLADGRGWISLDYLKK", "soluble fraction (log2)": -0.554}
{"sequenceCode": "HMSDTVDITKLGIAGKTKEAAEALLKENGFSVESKEENSDTIEKGKVISYSPTKPKNGDRITLIVSSGKK", "soluble fraction (log2)": 0.0915}
{"sequenceCode": "HMLSDEDMMELAIIENLQRENLNPIEEARAYESLIDKGFTHTEIADKMGKSRPYISNSIRLLSL", "soluble fraction (log2)": 0.162}
{"sequenceCode": "HMENFYGYEIINPEAKKFFITMGVNRYALEQWIKNKSEYGLIIVKSLYPFDPRLKLFLEKNRERIQNLIF", "soluble fraction (log2)": -0.566}
{"sequenceCode": "HMFEATGKITGTEVSFRRKPTTDSERILFFDINTEFRVIGINNGWYKGVYQGKTGYVRSDFVEIVGG", "soluble fraction (log2)": -0.162}
